These entries and their values trace back to paper PMC6348423.

Molecular target: T1, MCL-1 (human, UniProt Q07820 1-350)
T1 chain: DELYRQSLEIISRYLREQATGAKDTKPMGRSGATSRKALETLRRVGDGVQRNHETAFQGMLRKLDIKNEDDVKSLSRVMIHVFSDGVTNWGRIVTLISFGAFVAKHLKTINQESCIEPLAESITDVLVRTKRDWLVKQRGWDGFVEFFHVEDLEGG
Assay: FP
Ends that are not written are not given here. MTS‑TFMD = trifluoromethyl phenyl diazirine photocrosslinker tag, disulfide-linked to Cys via MTS; MTS‑diazirine = alkyl diazirine tag, disulfide-linked to Cys via MTS
Recorded Endpoint: pEC50
Numbers only, as −log10 of the molar value.

EDIIRNC(MTS‑TFMD)ARHLAQVGDSMDRSIP [BID_(80-102) I86C tagged with MTS-TFMD] : 5.85

State the recorded pEC50 for every item in the following list.
1. EDIC(MTS‑TFMD)RNIARHLAQVGDSMDRSIP [BID_(80-102) I83C tagged with MTS-TFMD]
2. EDIIRNC(MTS‑diazirine)ARHLAQVGDSMDRSIP [BID_(80-102) I86C tagged with MTS-diazirine]
3. EDIIRNIARHLAQVGDSMDRCIP (Cys100 disulfide-linked to MTS-diazirine (alkyl diazirine) tag; synthetic peptide, termini not stated in main text Limits not printed in the main text (supplement); 172-327 is the usual soluble MCL-1 construct for BH3 assays, close to the PDB 2KBW construct) [BID_(80-102) S100C tagged with MTS-diazirine]

1: 6.47; 2: 5.26; 3: 6.44
